Values were extracted from patent US6995182B2.

target: rat mGlu 1a receptor (Rattus norvegicus); assay: [Ca2+]i measurements (FLIPR, Fluo-3 AM) on mGlu 1a transfected EBNA cells; settings: rat mGlu 1a receptor transiently transfected into EBNA cells, agonist activity
Sequence (P23385 19-1199): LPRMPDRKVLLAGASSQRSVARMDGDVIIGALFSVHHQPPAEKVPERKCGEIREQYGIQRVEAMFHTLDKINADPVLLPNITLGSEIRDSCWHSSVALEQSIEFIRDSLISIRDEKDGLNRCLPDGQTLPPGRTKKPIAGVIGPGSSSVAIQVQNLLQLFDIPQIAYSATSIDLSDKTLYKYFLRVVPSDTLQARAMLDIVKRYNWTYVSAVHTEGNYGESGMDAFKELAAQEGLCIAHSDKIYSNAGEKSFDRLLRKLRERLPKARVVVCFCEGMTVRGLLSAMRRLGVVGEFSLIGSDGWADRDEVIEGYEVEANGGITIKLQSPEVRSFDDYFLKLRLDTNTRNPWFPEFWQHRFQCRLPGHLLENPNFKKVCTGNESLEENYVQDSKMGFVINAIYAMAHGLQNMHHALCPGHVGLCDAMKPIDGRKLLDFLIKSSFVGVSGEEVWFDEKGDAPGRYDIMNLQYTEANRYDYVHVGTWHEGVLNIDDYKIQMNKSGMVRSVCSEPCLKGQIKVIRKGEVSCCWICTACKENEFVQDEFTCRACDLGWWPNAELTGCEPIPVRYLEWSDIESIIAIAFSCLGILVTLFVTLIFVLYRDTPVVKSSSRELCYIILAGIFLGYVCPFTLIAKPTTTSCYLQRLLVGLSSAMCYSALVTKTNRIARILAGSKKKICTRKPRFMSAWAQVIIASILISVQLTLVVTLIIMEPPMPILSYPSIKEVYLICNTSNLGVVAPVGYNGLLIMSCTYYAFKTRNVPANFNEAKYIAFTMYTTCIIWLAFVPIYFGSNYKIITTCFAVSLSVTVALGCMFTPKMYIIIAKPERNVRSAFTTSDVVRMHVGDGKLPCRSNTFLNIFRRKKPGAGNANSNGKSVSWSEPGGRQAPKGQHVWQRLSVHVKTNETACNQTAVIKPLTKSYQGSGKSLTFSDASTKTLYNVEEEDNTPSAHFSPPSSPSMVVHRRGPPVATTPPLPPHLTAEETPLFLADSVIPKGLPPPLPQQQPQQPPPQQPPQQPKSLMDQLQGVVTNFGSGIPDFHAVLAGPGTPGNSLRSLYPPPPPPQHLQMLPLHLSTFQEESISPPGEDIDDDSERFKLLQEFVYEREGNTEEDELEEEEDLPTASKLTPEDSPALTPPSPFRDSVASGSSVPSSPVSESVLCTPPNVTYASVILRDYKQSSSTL
recorded.endpoint: EC50 (nM)

# molecule, recorded.endpoint, result.units, recorded.value
records = [
    ("Cc1ccc(S(=O)(=O)N2[C@@H](c3nnco3)CC[C@H]2c2ccc(F)cc2)cc1 (racemic)", "EC50", "nM", 1240),
    ("Cc1ccc(S(=O)(=O)N2[C@@H](Cc3noc(C)n3)CC[C@H]2c2ccc(F)cc2)cc1 (racemic)", "EC50", "nM", 630),
    ("Cc1ccc(S(=O)(=O)N2[C@H](CCCNS(C)(=O)=O)CC[C@@H]2c2ccc(F)cc2)cc1 (racemic)", "EC50", "nM", 160),
    ("Cc1ccc(S(=O)(=O)N2C(CCCO)CC[C@H]2c2ccc(F)cc2)cc1 (stereo in doubt)", "EC50", "nM", 200),
]

----------
Reported pEC50 values for a set of compounds
Target: rat mGlu 1a receptor (Rattus norvegicus)
Construct: expressed in transfected cells; host or cells: EBNA cells (transient transfection)
Assay: [Ca2+]i measurements (FLIPR, Fluo-3 AM) on mGlu 1a transfected EBNA cells
Format: cell-based
Details: rat mGlu 1a receptor transiently transfected into EBNA cells, agonist activity
Description: The pharmacological activity of the compounds was tested using the following method: cDNA encoding rat mGlu 1a receptor was transiently transfected into EBNA cells using a procedure described by E.-J. Schlaeger and K. Christensen (Transient gene expression in mammalian cells grown in serum-free suspension culture; Cytotechnology, 15: 1–13, 1998). […]
pEC50: −log10 of the molar value.

# compound, test.target, pEC50
data = [
    ("Cc1ccc(S(=O)(=O)N2[C@@H](CCCn3ccnc3)CC[C@H]2c2ccc(F)cc2)cc1", "rat mGlu 1a receptor (Rattus norvegicus)", 6.66),
    ("Cc1ccc(S(=O)(=O)N2[C@@H](CCn3ncnn3)CC[C@H]2c2ccc(F)cc2)cc1 (racemic)", "rat mGlu 1a receptor (Rattus norvegicus)", 5.83),
    ("Cc1ccc(S(=O)(=O)N2[C@H](CCCc3nc(C)cc(C)n3)CC[C@@H]2c2ccc(F)cc2)cc1 (racemic)", "rat mGlu 1a receptor (Rattus norvegicus)", 5.89),
    ("Cc1ccc(S(=O)(=O)N2[C@H](CCCCn3ncnn3)CC[C@@H]2c2ccc(F)cc2)cc1 (racemic)", "rat mGlu 1a receptor (Rattus norvegicus)", 6.46),
    ("Cc1ccc(S(=O)(=O)N2[C@@H](CCl)CC[C@H]2c2ccc(F)cc2)cc1 (racemic)", "rat mGlu 1a receptor (Rattus norvegicus)", 5.85),
    ("Cc1ccc(S(=O)(=O)N2[C@@H](Cc3nnn(C)n3)CC[C@H]2c2ccc(F)cc2)cc1 (racemic)", "rat mGlu 1a receptor (Rattus norvegicus)", 6.44),
    ("Cc1ccc(S(=O)(=O)N2[C@@H](C#N)CC[C@H]2c2ccc(F)cc2)cc1 (racemic)", "rat mGlu 1a receptor (Rattus norvegicus)", 5.36),
    ("Cc1ccc(S(=O)(=O)N2CCCC2CCCNC(=O)C2CC2)cc1 (racemic)", "rat mGlu 1a receptor (Rattus norvegicus)", 6.01),
    ("Cc1ccc(S(=O)(=O)N2[C@@H](CNC(=O)C3CC3)CC[C@H]2c2ccc(F)cc2)cc1 (racemic)", "rat mGlu 1a receptor (Rattus norvegicus)", 6.68),
]

----------
# melting point listing for each entry below

# compound, melting point
rows = [
    ("Cc1ccc(S(=O)(=O)N2[C@@H](C(=O)NCc3cccnc3)CC[C@H]2c2ccc(F)cc2)cc1.Cl (racemic)", "186 °C"),
    ("Cc1ccc(S(=O)(=O)N2[C@@H](CCn3cccn3)CC[C@H]2c2ccc(F)cc2)cc1 (racemic)", "121 °C"),
    ("Cc1ccc(S(=O)(=O)N2[C@@H](CNC(=O)C3CC3)CC[C@H]2c2ccc(F)cc2)cc1 (racemic)", "154 °C"),
    ("Cc1ccc(S(=O)(=O)N2[C@@H](Cc3nc(C)no3)CC[C@H]2c2ccc(F)cc2)cc1 (racemic)", "103 °C"),
    ("Cc1ccc(S(=O)(=O)N2[C@@H](CNC(=O)C(C)(C)C)CC[C@H]2c2ccc(F)cc2)cc1 (racemic)", "128 °C"),
    ("Cc1ccc(S(=O)(=O)N2[C@@H](CNC(=O)C3CCCC3)CC[C@H]2c2ccc(F)cc2)cc1 (racemic)", "147 °C"),
    ("Cc1ccc(S(=O)(=O)N2[C@@H](CCCO)CC[C@H]2c2ccc(F)cc2)cc1", "96 °C"),
    ("Cc1ccc(S(=O)(=O)N2[C@@H](CCc3nc(C4CC4)no3)CC[C@H]2c2ccc(F)cc2)cc1 (racemic)", "129 °C"),
    ("Cc1ccc(S(=O)(=O)N2[C@@H](CCC(=N)NO)CC[C@H]2c2ccc(F)cc2)cc1 (racemic)", "134 °C"),
    ("Cc1ccc(S(=O)(=O)N2[C@@H](C#N)CC[C@H]2c2ccc(F)cc2)cc1 (racemic)", "128 °C"),
    ("CCC(=O)NC[C@H]1CC[C@@H](c2ccc(F)cc2)N1S(=O)(=O)c1ccc(C)cc1 (racemic)", "142 °C"),
    ("Cc1ccc(S(=O)(=O)N2[C@@H](CCO)CC[C@H]2c2ccc(F)cc2)cc1 (racemic)", "129 °C"),
    ("Cc1ccc(S(=O)(=O)N2[C@@H](Cc3nc(C4CC4)no3)CC[C@H]2c2ccc(F)cc2)cc1 (racemic)", "102 °C"),
]

----------
Recorded melting point for the following compounds

# compound, melting point
measured = [
    ("Cc1ccc(S(=O)(=O)N2C(C3=NOC(C)N3)CCC2c2ccc(F)cc2)cc1 (stereo not shown)", "68 °C"),
    ("CC(=O)NC[C@H]1CC[C@@H](c2ccc(F)cc2)N1S(=O)(=O)c1ccc(C)cc1 (racemic)", "117 °C"),
    ("Cc1ccc(S(=O)(=O)N2[C@H](CCCc3nc(C)no3)CC[C@@H]2c2ccc(F)cc2)cc1 (racemic)", "91 °C"),
    ("Cc1ccc(S(=O)(=O)N2[C@@H](CCCO)CC[C@@H]2c2ccc(F)cc2)cc1 (racemic)", "93 °C"),
]

----------
recorded.endpoint: melting point (°C)

# compound, recorded.endpoint, result.units, recorded.value
records = [
    ("Cc1ccc(S(=O)(=O)N2[C@H](CCCCC#N)CC[C@@H]2c2ccc(F)cc2)cc1 (racemic)", "melting point", "°C", 79),
    ("Cc1ccc(S(=O)(=O)N2[C@H](CCCc3nnnn3C)CC[C@@H]2c2ccc(F)cc2)cc1 (racemic)", "melting point", "°C", 153),
    ("Cc1ccc(S(=O)(=O)N2[C@@H](CCC(N)=O)CC[C@H]2c2ccc(F)cc2)cc1 (racemic)", "melting point", "°C", 136),
    ("Cc1ccc(S(=O)(=O)N2[C@@H](CCc3ncnn3C)CC[C@H]2c2ccc(F)cc2)cc1 (racemic)", "melting point", "°C", 145),
    ("Cc1ccc(S(=O)(=O)N2[C@@H](c3nnn(C)n3)CC[C@H]2c2ccc(F)cc2)cc1 (racemic)", "melting point", "°C", 150),
    ("Cc1ccc(S(=O)(=O)N2[C@@H](CCc3nnco3)CC[C@H]2c2ccc(F)cc2)cc1 (racemic)", "melting point", "°C", 138),
    ("Cc1ccc(S(=O)(=O)N2[C@H](CCCNS(C)(=O)=O)CC[C@@H]2c2ccc(F)cc2)cc1 (racemic)", "melting point", "°C", 123),
    ("Cc1ccc(S(=O)(=O)N2[C@@H](CCC#N)CC[C@H]2c2ccc(F)cc2)cc1 (racemic)", "melting point", "°C", 86),
    ("Cc1ccc(S(=O)(=O)N2[C@@H](CO)CC[C@H]2c2ccc(F)cc2)cc1 [Example 58]", "melting point", "°C", 140),
    ("Cc1ccc(S(=O)(=O)N2[C@@H](c3ncn(C)n3)CC[C@H]2c2ccc(F)cc2)cc1 (racemic)", "melting point", "°C", 160),
    ("COC[C@@H]1CC[C@H](c2ccc(F)cc2)N1S(=O)(=O)c1ccc(C)cc1 (racemic)", "melting point", "°C", 152),
    ("Cc1ccc(S(=O)(=O)N2[C@@H](C(N)=O)CC[C@H]2c2ccc(F)cc2)cc1 (racemic)", "melting point", "°C", 137),
    ("Cc1ccc(S(=O)(=O)N2[C@H](CCCc3nnn(C)n3)CC[C@@H]2c2ccc(F)cc2)cc1 (racemic)", "melting point", "°C", 107),
    ("Cc1ccc(S(=O)(=O)N2[C@H](CCCCc3nnnn3C)CC[C@@H]2c2ccc(F)cc2)cc1 (racemic)", "melting point", "°C", 120),
    ("CC(=O)NCCC[C@@H]1CC[C@H](c2ccc(F)cc2)N1S(=O)(=O)c1ccc(Cl)cc1 (racemic)", "melting point", "°C", 49),
    ("Cc1ccc(S(=O)(=O)N2[C@@H](c3nc(C)no3)CC[C@H]2c2ccc(F)cc2)cc1 (racemic)", "melting point", "°C", 128),
    ("O=C(NCC[C@H]1CC[C@@H](c2ccc(F)cc2)N1S(=O)(=O)c1ccc(Cl)cc1)C1CC1 (racemic)", "melting point", "°C", 80),
    ("Cn1nnc(CC[C@H]2CC[C@@H](c3ccc(F)cc3)N2S(=O)(=O)c2ccc(Cl)cc2)n1 (racemic)", "melting point", "°C", 122),
    ("COC(=O)[C@H]1CC[C@@H](c2ccc(F)cc2)N1S(=O)(=O)c1ccc(C)cc1 (racemic)", "melting point", "°C", 91),
    ("CC(=O)NCC[C@H]1CC[C@@H](c2ccc(F)cc2)N1S(=O)(=O)c1ccc(Cl)cc1 (racemic)", "melting point", "°C", 103),
    ("Cc1ccc(S(=O)(=O)N2[C@@H](CCl)CC[C@H]2c2ccc(F)cc2)cc1 (racemic)", "melting point", "°C", 130),
    ("Cc1ccc(S(=O)(=O)N2[C@@H](c3ncon3)CC[C@H]2c2ccc(F)cc2)cc1 (racemic)", "melting point", "°C", 165),
    ("Cc1ccc(S(=O)(=O)N2[C@@H](C(=N)NO)CC[C@H]2c2ccc(F)cc2)cc1 (racemic)", "melting point", "°C", 217),
    ("Cc1ccc(S(=O)(=O)N2[C@@H](CCNC(=O)c3ccccc3)CC[C@H]2c2ccc(F)cc2)cc1 (racemic)", "melting point", "°C", 60),
    ("Cc1ccc(S(=O)(=O)N2[C@@H](CO)CC[C@H]2c2ccc(F)cc2)cc1 (racemic) [Example 2]", "melting point", "°C", 82),
    ("Cc1ccc(S(=O)(=O)N2[C@@H](CC#N)CC[C@H]2c2ccc(F)cc2)cc1 (racemic)", "melting point", "°C", 116),
    ("Cc1ccc(S(=O)(=O)N2[C@H](CCCC#N)CC[C@@H]2c2ccc(F)cc2)cc1 (racemic)", "melting point", "°C", 74),
    ("CC(=O)NCC[C@H]1CC[C@@H](c2ccc(F)cc2)N1S(=O)(=O)c1ccc(C)cc1 (racemic)", "melting point", "°C", 124),
    ("Cc1ccc(S(=O)(=O)N2[C@@H](CCc3nc(C)no3)CC[C@H]2c2ccc(F)cc2)cc1 (racemic)", "melting point", "°C", 91),
]
